Quick reference: pIC50 of the listed items.
# Assayed system: IL-17A/A (Homo sapiens, UniProt Q16552)
# Sequence (Q16552 24-155): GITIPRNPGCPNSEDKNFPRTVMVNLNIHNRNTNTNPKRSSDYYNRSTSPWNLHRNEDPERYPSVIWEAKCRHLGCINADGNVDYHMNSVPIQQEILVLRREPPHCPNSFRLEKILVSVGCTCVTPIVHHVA
# Protocol: IL-17A/A HEK-Blue cell assay
# Condition notes: HEK-Blue IL-17A reporter cell line (HEK 293), IL-17A/A stimulation, 20 hours incubation, SEAP read at A630
pIC50: −log10 of the molar value.

Compound: CC(C)n1nccc1C(=O)N[C@H](c1cn2nc(CC3C[C@H](C(F)(F)F)CNC3=O)ccc2n1)[C@H]1CCCC(F)(F)C1 (stereo partly drawn)
Endpoint result: > 7.00
//
Compound: CCn1nccc1C(=O)N[C@H](c1cn2nc(CC3C[C@@H](C(F)(F)F)CNC3=O)c(C(C)OC)cc2n1)C1CCC(F)(F)CC1 (stereo partly drawn)
Endpoint result: > 7.00
//
Compound: CCn1nccc1C(=O)N[C@H](c1cn2nc(CC3C(=O)NC4CC3C4)ccc2n1)[C@H]1CC[C@H](C)CC1 (stereo partly drawn)
Endpoint result: 6.00 to 7.00
//
Compound: CCn1nccc1C(=O)N[C@H](c1cn2nc(CC3CC(F)(F)CNC3=O)ccc2n1)C(C1CC1)C1CC1 (single isomer, unassigned) [Compound 29]
Endpoint result: < 6.00
//
Compound: O=C(N[C@H](c1cn2nc(CC3C[C@@H](C(F)(F)F)CNC3=O)ccc2n1)C1CCC(F)(F)CC1)c1conc1CF (stereo partly drawn)
Endpoint result: 6.00 to 7.00

Next, consider the following compound.
// field: pIC50; key: CCn1nccc1C(=O)N[C@H](c1cn2nc(CC3C[C@@H](C(F)(F)F)CNC3=O)ccc2n1)[C@H]1CC[C@H](C)CC1 (stereo partly drawn) ; value = 6.00 to 7.00

The origin of these recorded values is patent US20250346602A1.
